Target or system Activin receptor type-1-like (Homo sapiens); metric IC50; compiled from varied reports.
Numbers only; they are read as nM.

Example compounds with recorded IC50:
STRUCTURE	TEST_VALUE
CC(C)CN1c2ccc(-c3cncc(-c4ccc(=O)n(C(C)C)c4)c3)cc2CS1(=O)=O	690
NC(=O)c1ccc(-c2cnc(N)c(C(=O)N[C@H]3CC[C@@H](O)CC3)c2)cc1	890

Let us examine a further case.
QUERY: Fill in the blank: the reported IC50 of c1cc(-c2cnn3cc(-c4ccc(N5CCNCC5)cc4)cnc23)c2cccnc2c1 is ____.
RESULT: 14.4

---

Collected IC50 for Activin receptor type-1-like (Homo sapiens) across several studies; molecules listed below.
Report only the number, with the unit nM understood.

STRUCTURE	UNITS_SYMBOL	IC50
Nc1ncc(-c2ccc(CN3CCC(N4CCOCC4)CC3)cc2Cl)nc1C(=O)NC12CCC(O)(CC1)CC2	nM	120
c1cc(N2CCOCC2)ccc1-c1cnc2c(-c3cn[nH]c3)cnn2c1	nM	42.1
CC(C)Oc1ccc(-c2cnc3c(-c4ccnc5ccccc45)cnn3c2)cc1	nM	27
CNC(=O)[C@@H]1CC[C@@H](n2c(-c3ccc4cnccc4c3)nc3ccc(C(=O)NCc4cccc(C(N)=O)c4)cc32)C1	nM	267
COc1ccc(-c2cnc3c(-c4cn[nH]c4)cnn3c2)cc1	nM	52.4

// switching to the query molecule
QUERY: Lookup: IC50 / Activin receptor type-1-like (Homo sapiens) / NC(=O)c1cccc(CNC(=O)c2ccc3nc(-c4ccc5cnccc5c4)n(C4CCCC4)c3c2)c1
RESULT: 131

---

pIC50: −log10 of the molar value.
A compilation of pIC50 values for Activin receptor type-1-like (Homo sapiens, UniProt P37023) from the published literature.

STRUCTURE	pIC50
Cc1cccc(-n2nccc2-c2ccc3ncn(C)c(=O)c3c2)n1	< 5.30
Cc1ccc(CNc2nc(N)nc3[nH]c4cc(C)c(O)cc4c23)cc1	< 4.00

Could you now look at the following molecule, please?
QUERY: Form field: pIC50 recorded for CN1CCN(c2ccc(-c3cnc4c(-c5ccnc6ccccc56)cnn4c3)cc2)CC1 with Activin receptor type-1-like (Homo sapiens, UniProt P37023) (enter value)
RESULT: > 8.30
